All values here come from ChEMBL document CHEMBL4699438.

For each of the compounds below, state its IC50.
target: Alpha-synuclein (Homo sapiens); test: Inhibition of alpha-synuclein fibril formation (unknown origin) incubated for 24 hrs to 7 days by thioflavin S based fluorescence assay

The reported Alpha-synuclein (Homo sapiens) IC50 of `CC1=C(/C=C/C(C)=C/C=C/C(C)=C/CO)C(C)(C)CCC1` is 190 nM

Test item `CN(C)[C@@H]1C(O)=C(C(N)=O)C(=O)[C@@]2(O)C(O)=C3C(=O)c4c(O)cccc4[C@@](C)(O)[C@H]3C[C@@H]12` ; Alpha-synuclein (Homo sapiens); reported IC50 was 6060 nM

Fill in: Alpha-synuclein (Homo sapiens) IC50 for CC(Cc1ccc(O)c(O)c1)C(C)Cc1ccc(O)c(O)c1 (centres undefined) [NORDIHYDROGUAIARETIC ACID] = 220 nM

Considering `O=C(/C=C/c1ccc(O)c(O)c1)O[C@H](Cc1ccc(O)c(O)c1)C(=O)O` , its IC50 with Alpha-synuclein (Homo sapiens) was recorded as 210 nM
